system_name: human BACE1 (1-460):Fc (Homo sapiens (Human))
Sequence (P56817 22-460): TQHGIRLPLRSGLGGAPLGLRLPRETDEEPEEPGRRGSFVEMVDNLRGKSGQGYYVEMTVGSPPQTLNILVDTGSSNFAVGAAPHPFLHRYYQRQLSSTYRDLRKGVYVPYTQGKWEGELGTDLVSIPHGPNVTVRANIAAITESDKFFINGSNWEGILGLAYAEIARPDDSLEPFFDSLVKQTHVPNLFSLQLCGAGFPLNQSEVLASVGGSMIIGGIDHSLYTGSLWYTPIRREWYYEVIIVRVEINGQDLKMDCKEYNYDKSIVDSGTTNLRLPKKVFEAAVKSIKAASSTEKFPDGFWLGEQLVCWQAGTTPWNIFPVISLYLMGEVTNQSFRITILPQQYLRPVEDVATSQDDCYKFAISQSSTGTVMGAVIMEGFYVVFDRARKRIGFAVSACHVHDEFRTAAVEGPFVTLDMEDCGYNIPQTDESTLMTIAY
experiment: BACE1 FRET Assay
settings: purified recombinant huBACE1:Fc, FRET substrate, pH 4.6; Mean ± SEM
Structures can show the parent of a compound that is named as a salt.
measured_quantity: pIC50
The meaning of pIC50 here: minus log10 of the concentration in molar units.

molecule	system_name	measured_quantity	experimental_result
Cl.N#Cc1ccc(C(=O)Nc2ccc(F)c([C@]34COC[C@@]3(F)COC(N)=N4)c2)nc1 [Example 34, hydrochloride]	human BACE1 (1-460):Fc (Homo sapiens (Human))	pIC50	7.35
NC1=N[C@@]2(c3cc(NC(=O)c4cnc(OCC5(F)CC5)cn4)ccc3F)COC[C@@]2(F)CO1 [Example 57, hydrochloride]	human BACE1 (1-460):Fc (Homo sapiens (Human))	pIC50	7.59
Cl.NC1=N[C@@]2(c3cc(NC(=O)c4ccc(F)cn4)ccc3F)COC[C@@]2(F)CS1 [Example 1, hydrochloride]	human BACE1 (1-460):Fc (Homo sapiens (Human))	pIC50	7.81

Now look at this one.
**Query** Specify pIC50 for Cl.N#Cc1ccc(C(=O)Nc2ccc(F)c([C@]34COC[C@@]3(F)CSC(N)=N4)c2)nc1 [Example 3, hydrochloride] , system human BACE1 (1-460):Fc (Homo sapiens (Human)).
**Result** 8.18

Every entry's value here was drawn from patent US9029367B2.
